This section presents binders with their documented RU values.
Experimental Target: gEgI WT: HSV2 gEgI heterodimer comprising gE and gI wildtype ectodomains (HSV2, UniProt P89475 21-416; P06764 21-256)
Experiment Description: SPR binning; gEgI captured by mAb 39
Could you give me the number in RU? Just the number is fine.

Consider the reported RU for these binders:
INSERT INTO measurements (binder, unit_name, reported_value) VALUES
  ('mAb clone 24 (antibody, V domains shown) VH: EVQLQQSGPELVKPGASVKMSCKASGYTFTDYYMKWVKQSHGKSLEWIGDINPNNGDTFYNQKFKGKATLTVDKSSSTAYMQLNSLTSEDSAVYYCARRGFYYYGSRGGIMDYWGQGTSVTVSS VL: NIMMTQSPSSLAVSAGEKVTMSCKSSQSVLYSSNQKNYLAWYQQKPGQSPKLLIYWASTRESGVPDRFTGSGSGTDFTLTISSVQAEDLAVYYCHQYLSSYTFGGGTKLEIK', 'RU', 30.5),
  ('mAb clone 39 (antibody, V domains shown) VH: EVKLVESGGGLVQPGGSLKLSCAASGFTFSSYTMSWVRQTPEKRLEWVAYISNGGGSTYYPDTVKGRFTISRDNAKNTLYLQMSSLKSEDTAMYYCARGVSYYGDLYYFDYWGQGTTLTVSS VL: DVVVTQTPLSLPVSFGDQVSISCRSSQSLANSYGNTYLSWYLHKPGQSPQLLIYGISNRFSGVPDRFSGSGSGTDFTLKISTIKPEDLGMYYCLQGTHQPWTFGGGTKLEIK', 'RU', 1.3);

Read the next record carefully.
Quick one: RU for mAb clone 15 (antibody, V domains shown) VH: QVQLKESGPGLVAPSQSLSITCTVSGFSLTSYGVSWVRQPPGKGLEWLGVIWGDGSTNYHSALISRLSISKDNSKSQVFLKLNSLQTDDTATYYCAKPDLYYDSPYAMDYWGQGTSVTVSS VL: DIQMTQSPASLSASVGETVTITCRASGNIHNYLAWYQQKQGKSPQLLVYNAKTLADGVPSRFSGSGSGTQYSLKINSLQPEDFGSYYCQHFWSTPWTFGGGTKLEIK ?
11.7
